Origin of the recorded values: patent US7166581B1

- Assay Overview: Plasma uridine after oral uridine or TAU, with or without dipyridamole (Example 12)
- Format: in vivo, female Balb/C mice
- Reported Conditions: female, Balb/C, mouse, plasma, oral; 2 hr after uridine 1000 mg/kg p.o. or equimolar TAU 1500 mg/kg p.o., ± DPM 25 mg/kg i.p.; read-out: Plasma uridine levels

{"Smiles Str": "O=c1ccn([C@@H]2O[C@H](CO)[C@@H](O)[C@H]2O)c(=O)[nH]1", "concentration at 2 h": "4 µM"}

###

- Assay Overview: Plasma uridine after oral uridine or TAU, with or without dipyridamole (Example 12)
- Format: in vivo, female Balb/C mice
- Reported Conditions: female, Balb/C, mouse, plasma, oral; 4 hr after uridine 1000 mg/kg p.o. or equimolar TAU 1500 mg/kg p.o., ± DPM 25 mg/kg i.p.; read-out: Plasma uridine levels

{"Compound": "O=c1ccn([C@@H]2O[C@H](CO)[C@@H](O)[C@H]2O)c(=O)[nH]1 [Urd, uridine]", "concentration at 4 h, nM": 2000}

###

- Assay Overview: Plasma uridine after oral uridine or TAU, with or without dipyridamole (Example 12)
- Assay type: in vivo, female Balb/C mice
- Reported Conditions: female, Balb/C, mouse, plasma, oral; 1 hr after uridine 1000 mg/kg p.o. or equimolar TAU 1500 mg/kg p.o., ± DPM 25 mg/kg i.p.; read-out: Plasma uridine levels
- Protocol: Female Balb/C mice with a body weight of 20 grams were divided into four groups of 8 animals each: [table] […] Samples were lyophilized and then reconstituted with HPLC buffer (100 mM ammonium acetate, pH 6.5, for subsequent assay of uridine by reverse phase HPLC with UV absorbance detection (254 nm). Data points are the mean of two samples for each time point.
Parameter Measured: concentration at 1 h

{"Smiles Str": "O=c1ccn([C@@H]2O[C@H](CO)[C@@H](O)[C@H]2O)c(=O)[nH]1", "Obs Value": "6 µM"}
